Some compounds, each annotated with its measured TGI.
Tested on: EKVX NSCLC
Experiment: NCI tumour cell line growth inhibition, 48 h
State just the number; it will be interpreted in µM.

{"Compound": "CCOc1cc(NC(C)=O)ccc1C(=O)NN1C(=O)C(Cl)C1c1ccco1 (stereo not given)", "TGI, µM": 36.2}

Prompt: # query: TGI of entry Nc1nc(Cl)c(N)c(NCC2(CO)CC(CCCc3ccccc3)C2)n1 (stereo not given)
Completion: 10.1

---

Consider the following compounds and their measured TGI readings.
System: KM20L2 colon
Test: NCI tumour cell line growth inhibition, 48 h

{"Compound": "COc1cc(/C=C(/C#N)C(N)=O)ccc1O", "Tested Target": "KM20L2 colon", "Endpoint Label": "TGI", "Recorded Value": "> 100 µM"}
{"Compound": "[N-]=[N+]=C1C(=O)C2CC3CC(C2)CC1C3", "Tested Target": "KM20L2 colon", "Endpoint Label": "TGI", "Recorded Value": "> 100 µM"}
{"Compound": "COc1cc2nc(NCCCCCNC(=O)c3ccco3)nc(N)c2cc1OC", "Tested Target": "KM20L2 colon", "Endpoint Label": "TGI", "Recorded Value": "> 100 µM"}

Prompt: Give its TGI value. Item: COC(=O)C(C)(C)N=CN(C)C
Completion: > 100 µM

Prompt: Query: TGI; subject: CN(C)CC1CCCC1=O (stereo not given)
Completion: 5.32 µM

Prompt: Data request, read-out TGI, for CC1CN1c1c(C(=O)/C=C/c2ccccc2)c(-c2ccccc2)nn(C)c1=O (stereo not given)
Completion: 36.2 µM

Prompt: Item C/C=C(\C)c1cc(O)c(C)c2c1Oc1cc(O)c(Cl)c(C)c1C(=O)O2 has what recorded TGI?
Completion: 35.2 µM

Prompt: Need TGI, item O=C([CH-]C(=O)c1ccccc1)c1ccccc1.O=C([CH-]C(=O)c1ccccc1)c1ccccc1.[OH-].[OH-].[Ti+4]
Completion: > 100 µM

Prompt: Param item = O=C(O)/C(Cl)=C(\Cl)C(=O)Nc1ccc(Cl)c(Cl)c1Cl ; retrieve measured TGI.
Completion: 44.7 µM

Prompt: State the recorded TGI for this entry: CCOC(=O)CSc1nnc(C(Sc2nc(-c3ccccc3)c(-c3ccccc3)[nH]2)C(C)C)n1-c1ccccc1 (stereo not given)
Completion: > 10 µM

Prompt: Entry Nc1ccc(C(=O)NN2C(=O)C(Cl)C2c2ccccc2)cc1 (stereo not given) : reported TGI = ?
Completion: > 100 µM

Prompt: Fill blank: measured TGI of the compound CCOC(=O)C(=O)Nc1cc(Cl)ccc1Cl is ____.
Completion: > 100 µM

---

Tested on: SK-MEL-28 melanoma
Test: NCI tumour cell line growth inhibition, 48 h
Listed below: GI50 values for each entry.

Answered examples (4):
{"Compound": "CCN1C(=O)N(CC)C2C1NN=c1s/c(=C3\\C(=O)N(CCc4ccccc4)c4ccccc43)c(=O)n12 (stereo not given)", "Endpoint Label": "GI50", "Recorded Value": "1200 nM"}
{"Compound": "CN1CCN(CC(O)COc2c(Br)c(Br)c(Br)c3c2OC(C)(C)C3)CC1 (stereo not given)", "Endpoint Label": "GI50", "Recorded Value": "1850 nM"}
{"Compound": "COc1cc2c(c(OC)c1OC)-c1ccc(SC)c(=O)cc1[C@@H](NC1OC(CO)C(O)C(O)C1O)CC2 (stereo not given in full)", "Endpoint Label": "GI50", "Recorded Value": "1650 nM"}
{"Compound": "COC1O[C@@H]2C[C@H]3C(C)(C)CCC[C@]3(C)C3=CCCC1[C@@]32C (stereo not given in full)", "Endpoint Label": "GI50", "Recorded Value": "> 100000 nM"}

Here is another compound to look at.
Prompt: Report GI50 for COc1ccc2cc(-c3c(-c4ccncc4)nc(-c4ccc(S(C)=O)cc4)n3C)ccc2c1 (stereo not given) tested on SK-MEL-28 melanoma.
Completion: 24200 nM

---

Test system: CCRF-CEM leukemia
Assay: NCI tumour cell line growth inhibition, 48 h
Endpoint Label: TGI

{"Compound": "COc1ccc(C2[C@@H](Cl)C(=O)N2c2cc(OC)c(OC)c(OC)c2)cc1Cl (stereo partly drawn)", "Tested Target": "CCRF-CEM leukemia", "TGI": "39.4 µM"}
{"Compound": "CN1CCN(CC(O)COc2c(Br)c(Br)c(Br)c3c2OC(C)(C)C3)CC1 (stereo not drawn)", "Tested Target": "CCRF-CEM leukemia", "TGI": "16.2 µM"}
{"Compound": "[N-]=[N+]=C1C(=O)C2CC3CC(C2)CC1C3", "Tested Target": "CCRF-CEM leukemia", "TGI": "> 100 µM"}
{"Compound": "CC(=O)c1c(C(F)(F)F)n([O-])c2ccc(C)cc2[n+]1=O", "Tested Target": "CCRF-CEM leukemia", "TGI": "4.83 µM"}
{"Compound": "CN1CCN(Cc2ccc(NC(=O)c3[nH]ncc3Nc3ncnc4sc5c(c34)CCCC5)cc2)CC1", "Tested Target": "CCRF-CEM leukemia", "TGI": "0.823 µM"}
{"Compound": "COc1ccc(C(Cl)=C(c2ccc(OCCN(C)C)cc2)c2ccc(OCCN(C)C)cc2)cc1", "Tested Target": "CCRF-CEM leukemia", "TGI": "3.83 µM"}

Prompt: Reported TGI for CCCCn1c(=O)c2c(nc3n2CCCN3CCc2ccc(OCC(=O)NCCN(CC)CC)cc2)n(CCCC)c1=O : what is it?
Completion: 3.9 µM

Prompt: Sample CN(C)c1ccc(/C=C2\C=Cc3ccccc32)cc1 — what was its TGI?
Completion: > 100 µM

Prompt: Quick one: TGI of CCN1C(=O)N(CC)C2C1NN=c1s/c(=C\c3ccccc3Br)c(=O)n12 (stereo not drawn) ?
Completion: > 100 µM

Prompt: GET /values?readout=TGI&item= COC(=O)c1c(O)ccc2c1C1(Cc3ccccc3C1=O)C(O)O2 (stereo not drawn)
Completion: 11.7 µM

---

Examples of compounds with documented GI50 follow.
Tested on: HS 578T breast
Experiment: NCI tumour cell line growth inhibition, 48 h

{"Compound": "CC(=O)c1c(C(F)(F)F)n([O-])c2ccc(C)cc2[n+]1=O", "GI50": "3.43 µM"}

Prompt: Can you look up the measured GI50 of O=[N+]([O-])c1cc(S(=O)(=O)Oc2ccccc2)ccc1Cl for me?
Completion: 2.7 µM

Prompt: Value lookup for GI50; key = COc1ccc(OC)c(Cn2cc3c(c2)-c2oncc2CC3)c1
Completion: 2.25 µM

Prompt: Record request: GI50 value, item CN1CCC(n2cnc(-c3ccc(F)cc3)c2-c2ccnc(N)n2)CC1
Completion: 15.3 µM

Prompt: Reported GI50, compound BrCc1ccc(CBr)cc1 : ____
Completion: 21.6 µM

Prompt: Any idea what GI50 was measured for COc1cc(/C=C/[N+](=O)[O-])cc(Br)c1OC ?
Completion: 2.9 µM

Prompt: Name the recorded GI50 for COc1ccc(OC)c(C2SCC(=O)N2NC(=O)C(O)c2ccccc2)c1 (stereo not drawn) .
Completion: > 100 µM

Prompt: Return reported GI50; argument: COc1ccc2c(c1OC)C(=O)OC2C1c2c(c([N+](=O)[O-])c3c(c2OC)OCO3)CCN1C (stereo not drawn)
Completion: > 100 µM

---

Test system: SK-MEL-28 melanoma
Test: NCI tumour cell line growth inhibition, 48 h
# key: entry, value: TGI

{"Compound": "Cc1ccc2nc(NC(=O)/C(Cc3nc4ccc(Cl)cc4[nH]c3=O)=N\\NC(C)(C)C)sc2c1", "TGI": "> 100 µM"}
{"Compound": "Nc1ccc(CCN2CCN(CCCc3ccccc3)CC2)cc1", "TGI": "> 100 µM"}
{"Compound": "CCOC(=O)CSc1nnc(C(Sc2nc(-c3ccccc3)c(-c3ccccc3)[nH]2)C(C)C)n1-c1ccccc1 (centres undefined)", "TGI": "29 µM"}
{"Compound": "CCC[C@H](C)C[C@H](C)C[C@H](C)/C=C(\\C)[C@@H](O)[C@@H](C)C(=O)CC", "TGI": "33.4 µM"}
{"Compound": "CC(C)(CC(O)C#N)/[N+]([O-])=[N+](\\[O-])C(C)(C)CC(O)C#N (centres undefined)", "TGI": "> 100 µM"}

Prompt: Which TGI is listed for COc1cccc(N2C(=O)C3c4[nH]c5ccc(C)cc5c4C4CCC(C(C)(C)C)CC4C3C2=O)c1 (centres undefined) ?
Completion: > 10 µM

Prompt: Suppose we examine the compound CN1COc2c(n(C)c(=O)[nH]c2=O)C1 ; what TGI value has been reported?
Completion: > 100 µM

Prompt: Requested field: TGI. Item: COc1ccc2c(c1OC)C(=O)OC2C1c2c(c([N+](=O)[O-])c3c(c2OC)OCO3)CCN1C (centres undefined)
Completion: > 100 µM

Prompt: # lookup: TGI of CCN1C(=O)N(CC)C2C1NN=c1s/c(=C3\C(=O)N(CCc4ccccc4)c4ccccc43)c(=O)n12 (centres undefined)
Completion: > 28.4 µM
